Test system: Escherichia coli
Assay: Antimicrobial activity against Escherichia coli
Format: functional
This listing pairs compounds with measured MIC.

{"smiles_repr": "O=C1S/C(=C\\c2ccccc2)C(=O)N1Cc1ccc(-c2ccccc2-c2nnn[nH]2)cc1", "MIC": "7.75 to 35.4 µg/mL"}
{"smiles_repr": "c1ccc2c(c1)cc(-c1nc3sccn3c1NC1CCCCC1)c1nnnn12", "MIC": "> 320 µg/mL"}
{"smiles_repr": "c1cc(-c2nnn[nH]2)cc(-c2nnn[nH]2)c1", "MIC": "125 to 1000 µg/mL"}
